- SUBJECT_OF_TEST: fMet-Leu-Phe receptor (Homo sapiens, UniProt P21462)
- PROTOCOL_NOTES: Biased agonist activity at human FPR1 expressed in FlpIn-CHO cells assessed as stimulation of ERK1/2 phosphorylation measured after 7 mins by Alphascreen assay
- Assay type: cell-based
- REPORTED_CONDITIONS: read-out: pEC50 (converted)

COMPOUND	SUBJECT_OF_TEST	EC50
COc1cccc(Cc2cc(C)nn(CC(=O)Nc3c(F)cc(Cl)cc3F)c2=O)c1	fMet-Leu-Phe receptor (Homo sapiens, UniProt P21462)	> 100 µM
COc1ccccc1Cc1cc(C(F)(F)F)nn(CC(=O)Nc2ccc(Cl)cc2)c1=O	fMet-Leu-Phe receptor (Homo sapiens, UniProt P21462)	> 100 µM
COc1ccccc1Cc1cc(C)nn(CC(=O)Nc2ccc(Cl)cc2Cl)c1=O	fMet-Leu-Phe receptor (Homo sapiens, UniProt P21462)	> 100 µM
Cc1cc(Cc2ccc(F)cc2)c(=O)n(CC(=O)Nc2c(F)cc(F)cc2[N+](=O)[O-])n1	fMet-Leu-Phe receptor (Homo sapiens, UniProt P21462)	> 100 µM
COc1ccccc1Cc1cc(C)nn(C(C(=O)Nc2ccc(Cl)cc2)C2CC2)c1=O (stereo unspecified)	fMet-Leu-Phe receptor (Homo sapiens, UniProt P21462)	> 100 µM
COc1ccccc1Cc1cc(C)nn(CC(=O)Nc2ccccc2C#N)c1=O	fMet-Leu-Phe receptor (Homo sapiens, UniProt P21462)	> 100 µM

---

- SUBJECT_OF_TEST: fMet-Leu-Phe receptor (Homo sapiens)
- Sequence (P21462 whole entry): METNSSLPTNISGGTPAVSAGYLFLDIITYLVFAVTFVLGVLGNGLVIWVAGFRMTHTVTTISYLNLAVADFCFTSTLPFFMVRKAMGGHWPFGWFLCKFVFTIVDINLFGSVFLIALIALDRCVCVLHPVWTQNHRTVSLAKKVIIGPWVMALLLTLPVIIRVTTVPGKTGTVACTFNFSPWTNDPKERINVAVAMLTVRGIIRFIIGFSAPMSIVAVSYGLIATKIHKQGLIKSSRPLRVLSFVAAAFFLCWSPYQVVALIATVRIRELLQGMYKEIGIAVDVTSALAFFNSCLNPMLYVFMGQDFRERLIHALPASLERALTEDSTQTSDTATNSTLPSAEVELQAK
- PROTOCOL_NOTES: Biased agonist activity at human FPR1 expressed in FlpIn-CHO cells assessed as intracellular calcium mobilization by Fluo-4-AM dye based fluorescence assay
- Type: functional, cell-based
- REPORTED_CONDITIONS: read-out: pEC50 (converted)

COMPOUND	EC50
COc1ccccc1Cc1cc(C)nn(CC(=O)Nc2cccc(Cl)c2)c1=O	> 100 µM
COc1ccccc1Cc1cc(C)nn(C(C)C(=O)Nc2ccc(Br)cc2)c1=O (centres undefined)	> 100 µM
COc1cccc(Cc2cc(C)nn(C(C)C(=O)Nc3cccc(Cl)c3)c2=O)c1 (centres undefined)	> 100 µM
CCCCC(C(=O)Nc1ccc(Cl)cc1)n1nc(C(F)(F)F)cc(Cc2ccccc2OC)c1=O (centres undefined)	> 100 µM

Where these numbers come from: ChEMBL document CHEMBL4350966
